Measured values drawn from patent US20200339690A1 for this set.

Each item that follows carries a reported pEC50.
- EXPERIMENTAL TARGET: T1, human LILRB2 expressed on cells (human, UniProt Q8N423 22-597)
- T1 construct: CHO-s cells over-expressing full-length human LILRB2, or primary human macrophages and dendritic cells; also called hLILRB2-CHO-s; hLILRB2+ CHO-s
- T1 sequence (Q8N423 other isoform, or with tags, fused parts or gaps limits assumed): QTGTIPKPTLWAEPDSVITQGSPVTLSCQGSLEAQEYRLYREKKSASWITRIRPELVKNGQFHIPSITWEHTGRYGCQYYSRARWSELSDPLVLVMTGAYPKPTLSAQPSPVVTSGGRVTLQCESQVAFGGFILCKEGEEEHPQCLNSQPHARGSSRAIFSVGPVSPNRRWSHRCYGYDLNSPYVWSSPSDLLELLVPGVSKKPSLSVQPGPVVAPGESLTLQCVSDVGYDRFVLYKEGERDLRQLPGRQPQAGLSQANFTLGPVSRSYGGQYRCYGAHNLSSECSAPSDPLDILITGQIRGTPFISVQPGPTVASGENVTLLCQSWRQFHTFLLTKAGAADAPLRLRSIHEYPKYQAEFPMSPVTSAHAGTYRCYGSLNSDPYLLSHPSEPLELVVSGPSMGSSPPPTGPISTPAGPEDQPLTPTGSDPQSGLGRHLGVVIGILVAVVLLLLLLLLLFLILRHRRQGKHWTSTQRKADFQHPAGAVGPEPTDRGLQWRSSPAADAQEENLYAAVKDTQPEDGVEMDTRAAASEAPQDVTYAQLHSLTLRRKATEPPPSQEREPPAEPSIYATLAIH
- TEST PROTOCOL: HLA-A2:LILRB2 blocking; HLA-A2 tetramer on primary human macrophages, flow cytometry
The value called pEC50 is obtained by taking minus log10 of the concentration in mol/L.

Worked set:
J-19.h4 (antibody, human IgG4 S228P, kappa, V domains shown, Humanized, human IgG4 backbone) VH: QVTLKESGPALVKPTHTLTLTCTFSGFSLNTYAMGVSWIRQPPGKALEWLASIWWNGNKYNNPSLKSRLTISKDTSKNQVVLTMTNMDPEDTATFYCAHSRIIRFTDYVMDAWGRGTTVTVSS VL: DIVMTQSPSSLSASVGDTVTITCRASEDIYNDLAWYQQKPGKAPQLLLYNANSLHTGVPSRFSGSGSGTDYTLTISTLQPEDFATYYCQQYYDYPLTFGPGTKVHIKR	9.97
J-19.h3 (antibody, human IgG4 S228P, kappa, V domains shown, Humanized, human IgG4 backbone) VH: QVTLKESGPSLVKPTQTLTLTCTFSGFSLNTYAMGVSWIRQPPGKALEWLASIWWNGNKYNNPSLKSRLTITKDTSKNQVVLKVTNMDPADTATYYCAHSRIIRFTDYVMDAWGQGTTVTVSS VL: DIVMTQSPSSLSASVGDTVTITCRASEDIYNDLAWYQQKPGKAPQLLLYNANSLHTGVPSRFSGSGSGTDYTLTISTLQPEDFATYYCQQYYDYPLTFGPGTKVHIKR	9.99
J-19.h1 (antibody, human IgG4 S228P, kappa, V domains shown, Humanized, human IgG4 backbone) VH: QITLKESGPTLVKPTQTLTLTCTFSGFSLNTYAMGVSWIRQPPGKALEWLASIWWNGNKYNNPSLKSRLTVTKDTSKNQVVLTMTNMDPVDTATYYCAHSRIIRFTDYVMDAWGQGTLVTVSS VL: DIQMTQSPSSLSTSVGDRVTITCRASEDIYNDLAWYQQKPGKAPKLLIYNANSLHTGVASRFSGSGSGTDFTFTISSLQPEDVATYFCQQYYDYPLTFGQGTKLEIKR	10.08

In the following, a different binder is considered.
Given J-19.h2 (antibody, human IgG4 S228P, kappa, V domains shown, Humanized, human IgG4 backbone) VH: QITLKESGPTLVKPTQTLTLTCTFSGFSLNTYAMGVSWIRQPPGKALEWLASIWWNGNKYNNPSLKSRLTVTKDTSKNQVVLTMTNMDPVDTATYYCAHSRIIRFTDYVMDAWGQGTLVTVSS VL: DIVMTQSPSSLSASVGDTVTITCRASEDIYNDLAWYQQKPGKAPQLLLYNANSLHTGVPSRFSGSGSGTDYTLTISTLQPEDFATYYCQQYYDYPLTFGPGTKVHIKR , state its recorded pEC50. 10.06
